Give CC50 at 24 h for every item shown.
assay: in vitro; settings: rat, gh3-tre-luc cells, AC50 (uM) modified / 1000
Where a name gives a salt, the structure may show the parent alone.

Recorded results for 3 compounds are shown here.
- CNC(=O)c1c(I)c(C(=O)NCC(=O)Nc2c(I)c(C(=O)O)c(I)c(C(=O)NCCO)c2I)c(I)c(N(C)C(C)=O)c1I: > 50 µM
- OCC(O)CS (stereo not drawn): > 90 µM
- CC(=O)Nc1ccccc1 [Acetanilide]: > 90 µM

# per-item lookup of CC50 at 24 h; items listed below
1. O=C(O)CCCc1c[nH]c2ccccc12
2. COC(=O)[C@@H](N)CS [Methyl L-cysteinate hydrochloride]

1. > 90 µM
2. > 50 µM

###

assay: in vitro; settings: rat, gh3-tre-luc cells, AC50 (uM) modified / 1000
Counter-ions that a name gives are not always drawn.
measurement label: CC50 at 24 h

Recorded results for 6 compounds are shown here.
• C#C[C@]1(O)CC[C@H]2[C@@H]3[C@H](C)CC4=C(CCC(=O)C4)[C@H]3CC[C@@]21C = 51.8 µM
• COc1ccc(Nc2ccccc2)c(C)c1 = > 90 µM
• CC1=C(C(=O)Nc2ccccc2)SCCO1 = > 90 µM
• C=CCOC(=O)CC(C)C [Allyl isovalerate] = > 90 µM
• C[Si]1(C)N[Si](C)(C)N[Si](C)(C)N1 = > 90 µM
• CN1C(=O)CC(c2ccccc2)C1=O (centres unmarked) [Phensuximide] = > 50 µM

# per-item lookup of CC50 at 24 h; items listed below
1. CN(C)CCc1c[nH]c2ccc(Cn3cncn3)cc12
2. NC(=O)COCCN1CCN(C(c2ccccc2)c2ccc(Cl)cc2)CC1 (centres unmarked) [Cetirizine amide dihydrochloride]
3. Oc1noc2c1CCNC2
4. C[C@]12CC[C@H]3[C@@H](CCC4=CC(=O)CC[C@@H]43)[C@@H]1CC[C@@H]2OC(=O)CCc1ccccc1 [Nandrolone phenpropionate]

1: > 50 µM; 2: 21.7 µM; 3: > 50 µM; 4: > 50 µM

# per-item lookup of CC50 at 24 h; items listed below
1. Cc1nn(C)c(Oc2ccccc2)c1C=NOCc1ccc(C(=O)OC(C)(C)C)cc1 [Fenpyroximate (Z,E)]
2. CN1CCN(C2=Nc3cc(Cl)ccc3Nc3ccccc32)CC1
3. CCNC(=O)[C@@H]1CCCN1C(=O)[C@H](CCCN=C(N)N)NC(=O)[C@H](CC(C)C)NC(=O)[C@@H](Cc1c[nH]c2ccccc12)NC(=O)[C@H](Cc1ccc(O)cc1)NC(=O)[C@H](CO)NC(=O)[C@H](Cc1c[nH]c2ccccc12)NC(=O)[C@H](Cc1cnc[nH]1)NC(=O)[C@@H]1CCC(=O)N1 [Deslorelin acetate]
4. CC[C@@H]1/C=C(\C)C[C@H](C)C[C@H](OC)[C@H]2O[C@@](O)(C(=O)C(=O)N3CCCC[C@H]3C(=O)O[C@H](/C(C)=C/[C@@H]3CC[C@H](Cl)[C@H](OC)C3)[C@H](C)[C@@H](O)CC1=O)[C@H](C)C[C@@H]2OC
5. CCCOCC(C)OCC(C)O (centres unmarked)

1: 59.7 µM; 2: 15.9 µM; 3: 1.89 µM; 4: > 50 µM; 5: > 90 µM

# per-item lookup of CC50 at 24 h; items listed below
1. Cc1ccc2ccccc2n1
2. Nc1c(CC(=O)O)cccc1C(=O)c1ccc(Br)cc1 [Bromfenac sodium sesquihydrate]
3. CN(C)c1nc(=O)n(C2CCCCC2)c(=O)n1C
4. C=CCOCC(CC)(CO)COCC=C
5. COC(=O)c1ccccc1S(=O)(=O)NC(=O)Nc1nc(C)nc(OC)n1
6. CCN(CC)CCCC(C)Nc1cc(/C=C/c2ccccc2Cl)nc2cc(Cl)ccc12 (centres unmarked)

> 90 µM
> 50 µM
> 100 µM
> 90 µM
> 90 µM
20.1 µM

###

experiment: in vitro; details: rat, gh3-tre-luc cells, AC50 (uM) modified / 1000
measurement label: CC50 at 24 h

Recorded results for 6 molecules are shown here.
• CN1C(C)(C)CC(O)CC1(C)C = > 90 µM
• CC(C)CCCC(C)CC=O (centres unmarked) = > 90 µM
• CCCCC[Si](OCC)(OCC)OCC = > 90 µM
• CCCNC(=O)NS(=O)(=O)c1ccc(Cl)cc1 [Chlorpropamide] = > 90 µM
• CC[N+]1(C)CCCC(OC(=O)C(O)(c2ccccc2)c2ccccc2)C1 (centres unmarked) [Pipenzolate bromide] = > 50 µM
• CC(=O)c1ccc(Cl)c(Cl)c1Cl = > 90 µM

# per-item lookup of CC50 at 24 h; items listed below
1. C=C(c1ccc(C(=O)O)cc1)c1cc2c(cc1C)C(C)(C)CCC2(C)C
2. CCc1cc(C(N)=S)ccn1 [Ethionamide]
3. O=C(Nc1ccc(O)cc1)c1ccccc1O

1. 16.1 µM
2. > 50 µM
3. > 50 µM

# per-item lookup of CC50 at 24 h; items listed below
1. CN1C(CSCC(F)(F)F)Nc2cc(Cl)c(S(N)(=O)=O)cc2S1(=O)=O (centres unmarked) [Polythiazide]
2. CCOC(=O)C1=NOC(c2ccccc2)(c2ccccc2)C1
3. CN1C(=O)CN2CCc3ccccc3C2c2cc(Cl)ccc21 (centres unmarked)
4. O=C(c1ccccc1)c1ccccc1O [2-Hydroxybenzophenone]
5. O=C(CO)[C@@H](O)[C@H](O)[C@@H](O)C(=O)O [Calcium 5-ketogluconate]
6. CCCCC(CC)CN1CN(CC(CC)CCCC)CC(C)(N)C1 (centres unmarked)

["> 50 µM", "> 90 µM", "> 50 µM", "> 90 µM", "> 50 µM", "> 20 µM"]

###

Give CC50 at 24 h for every item shown.
assay: in vitro; settings: rat, gh3-tre-luc cells, AC50 (uM) modified / 1000
Where a name gives a salt, the structure may show the parent alone.

• CC1CNc2c(cccc2S(=O)(=O)N[C@@H](CCCNC(=N)N)C(=O)N2CC[C@@H](C)C[C@@H]2C(=O)O)C1 (some centres unmarked) = > 50 µM

# per-item lookup of CC50 at 24 h; items listed below
1. CC/C(=C\C(=N/O)C(N)=O)C(C)[N+](=O)[O-] (centres unmarked)
2. Cc1nc2ccc(CN(C)c3ccc(C(=O)N[C@@H](CCC(=O)O)C(=O)O)s3)cc2c(=O)[nH]1
3. CC(C)NCC(O)c1cc(O)cc(O)c1 (centres unmarked) [Orciprenaline sulfate]
4. O=CC1CC=CCC1 (centres unmarked)
5. CC1(C)[C@H](C=C(Cl)Cl)[C@H]1C(=O)OCc1c(F)c(F)cc(F)c1F [Transfluthrin]
6. CC(=O)Nc1ccc(OC(C)=O)cc1 [Diacetamate]
7. O=C(Nc1ccc(S(=O)(=O)N2CCOCC2)cc1)c1cc(Cl)ccc1NS(=O)(=O)c1ccc(Cl)s1

1. > 90 µM
2. > 50 µM
3. > 50 µM
4. > 90 µM
5. > 50 µM
6. > 50 µM
7. 24 µM

# per-item lookup of CC50 at 24 h; items listed below
1. CCCCCNCCCCC
2. O=[N+]([O-])c1cc(C(F)(F)F)ccc1Cl
3. CN(C)c1ccc(O)c2c1C[C@H]1C[C@H]3[C@H](N(C)C)C(O)=C(C(N)=O)C(=O)[C@@]3(O)C(O)=C1C2=O [Minocycline hydrochloride]
4. CC(C)=CCC/C(C)=C/COC=O
5. CC[C@@]1(c2ccccc2)NC(=O)N(C)C1=O [(S)-Mephenytoin]
6. CCC1(C)NC(=O)NC1=O (centres unmarked)

["> 90 µM", "> 90 µM", "> 90 µM", "> 90 µM", "> 50 µM", "> 90 µM"]

# per-item lookup of CC50 at 24 h; items listed below
1. C[N+](C)(CCOc1ccccc1)Cc1cccs1
2. C=COCC1CCC(COC=C)CC1 (centres unmarked) [1,4-Bis[(ethenyloxy)methyl]cyclohexane]
3. Oc1c(Cl)cc(Cl)c2cccnc12

["> 50 µM", "> 90 µM", "5.91 µM"]

# per-item lookup of CC50 at 24 h; items listed below
1. C[C@]12CC[C@@H]3c4ccc(OS(=O)(=O)O)cc4CC[C@H]3[C@@H]1CCC2=O [Estropipate]
2. CCOc1nc2cccc(C(=O)O)c2n1Cc1ccc(-c2ccccc2-c2nnn[nH]2)cc1

1. > 50 µM
2. 34.4 µM

# per-item lookup of CC50 at 24 h; items listed below
1. CCCCCC(=O)OCCc1ccccc1 [2-Phenylethyl hexanoate]
2. N[C@H](C(=O)O)[C@@H]1CC(Cl)=NO1
3. CC(=O)Nc1cc(S(=O)(=O)O)cc2cc(S(=O)(=O)O)c(N=Nc3ccccc3)c(O)c12
4. CC(CC=O)CC(C)(C)C (centres unmarked)

1. > 90 µM
2. 3.86 µM
3. 53.1 µM
4. > 90 µM

# per-item lookup of CC50 at 24 h; items listed below
1. CC(C)COC(=O)C(C)C [Isobutyl isobutyrate]
2. Oc1cccc(Nc2ccccc2)c1 [3-Hydroxy-N-phenylaniline]
3. O=c1c2ccccc2[se]n1-c1ccccc1

1: > 90 µM; 2: > 100 µM; 3: 19.6 µM

# per-item lookup of CC50 at 24 h; items listed below
1. CC(C)(C)c1ccc(O)c(O)c1
2. O=C1c2cccc(O)c2C(=O)c2c(O)cccc21
3. CCCOC(=O)CCCCC(=O)OCCC [Dipropyl hexanedioate]
4. C[Si](C)O[Si](C)(C)O[Si](C)(C)O[Si](C)C
5. CCCCCCCCCCCCCCCC[N+](C)(C)CCN(Cc1ccc(OC)cc1)c1ncccn1 [Thonzonium bromide]

1: 43 µM; 2: > 90 µM; 3: > 90 µM; 4: > 90 µM; 5: 14.6 µM

Looking up CC(C(=O)O)c1cccc(C(=O)c2ccccc2)c1 (centres unmarked) , I found its CC50 at 24 h recorded as > 90 µM
